Recorded values, source PubChem BioAssay AID1920062.

Molecular target: Atrial natriuretic peptide receptor 2 (Homo sapiens)
Test: GC-B stimulated cGMP production enhancers – HEK293 GC-B cells, cGMP TR-FRET, EC30 CNP, primary screen (AID 1920062)
Settings: at 10 µM, 0% at EC30 CNP, 100% saturating CNP
Among all 370,000 compounds or so, about 400 (0.11%) were called active.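 How the source made its calls: active means activation at 10 µM reaching about 35% in either raw or pattern-adjusted values (limit read from the data); inactive means the rest.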 This is one part of a sample in which actives are shown more often than they occur.
I would appreciate it if you answered using one of these outcomes: active, inactive

Some solved cases for reference:
Field: outcome | Entry: O=C(NCc1cc(C(F)(F)F)cc(C(F)(F)F)c1)C1CC(c2cccc(F)c2)=NO1 (stereo not given) inactive

Field: outcome | Entry: O=C1CSC(c2cccc(F)c2)N1c1ccc(O)cc1 (stereo not given) inactive

Field: outcome | Entry: C/C(=N\N(C)C)c1ccc(OCCOc2ccc([N+](=O)[O-])cc2)cc1 inactive

Continuing:
Field: outcome | Entry: CC[C@]1(C(=O)OC)[C@H]2C(=O)N(C)C(=O)[C@H]2[C@H]2CN(C)C(=NCc3ccccc3)N21 inactive

Field: outcome | Entry: Cc1ccc(CN(N=Nc2nonc2N)c2nonc2N)c(C)c1 active
